Experiment: Phase I study Part A, single IV dose, plasma pharmacokinetics
Assay type: in vivo, healthy male and female subjects
Conditions: both sexes, human, plasma, iv; Treatment 600 mg Ceftaroline fosamil; Median; read-out: Tmax
Protocol: A single center, two-part randomized Phase I Study was conducted to evaluate the safety, tolerability, and pharmacokinetics of single and multiple intravenous doses of ceftaroline fosamil and NXL-104 in healthy male and female subjects, aged 18 through 45 years. […] The Cmax of ceftaroline, ceftaroline fosamil, ceftaroline M-1, and NXL-104 free acid was determined observationally as the peak concentration for each subject. Tmax was determined as the time corresponding to Cmax. […]
metric_name: Tmax
Answer format: value, then unit.

compound	reading
CCO/N=C(\C(=O)N[C@@H]1C(=O)N2C(C(=O)[O-])=C(Sc3nc(-c4cc[n+](C)cc4)cs3)CS[C@H]12)c1nsc(NP(=O)(O)O)n1 [ceftaroline fosamil]	40.2 min

Continue with the next compound.
Given the entry CCO/N=C(\C(=O)N[C@@H]1C(=O)N2C(C(=O)[O-])=C(Sc3nc(-c4cc[n+](C)cc4)cs3)CS[C@H]12)c1nsc(N)n1 [Ceftaroline] , report its measured Tmax.
60 min

Taken from patent US8835455B2.
